Molecular target: T1, HaloTag-ATRX ADD domain (163-292)
T1 chain: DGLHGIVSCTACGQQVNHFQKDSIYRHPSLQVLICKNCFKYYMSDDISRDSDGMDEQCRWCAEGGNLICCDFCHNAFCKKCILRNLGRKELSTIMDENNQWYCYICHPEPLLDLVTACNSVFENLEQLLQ
Assay: peptide microarray binding signal (635 nm), min-max normalized on array (fraction of array maximum); higher = stronger binding
Conditions: peptide region: Unmod H1 variant; binder concentration: 500 nM
measured-attribute: peptide microarray binding signal
Answers are plain numbers.

Known peptide microarray binding signal results, listed for orientation:
binder: KKAPKSPAKAKAV [Unmod H1 variant K K A P K S P A K A K A V]
readout-value: 0.00976
//
binder: KAKSSAKRAGKKK [Unmod H1 variant K A K S S A K R A G K K K]
readout-value: 0.016
//
binder: TKPKTAKPKKAAP [Unmod H1 variant T K P K T A K P K K A A P]
readout-value: 0.0103

Value of measured peptide microarray binding signal for the entry ERGGVSLAALKKA [Unmod H1 variant E R G G V S L A A L K K A] : 0.0165
